Would you kindly list pIC50 for each of these compounds?
# studySystem: Intracellular chorismate mutase (Mycobacterium tuberculosis, UniProt P9WIC1)
# Sequence (P9WIC1 whole entry): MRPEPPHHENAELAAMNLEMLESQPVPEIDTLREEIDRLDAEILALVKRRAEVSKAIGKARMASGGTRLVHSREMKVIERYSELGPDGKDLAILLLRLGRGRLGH
# testProtocol: Inhibition of Mycobacterium tuberculosis chorismate mutase using chorismate substrate in dose response study by spectrophotometry
Give bare numbers, as −log10 of the molar value.

COc1cccc(-n2cnc3sc4c(c3c2=O)CCCC4)c1 4.70

Look at this compound and give its reported pIC50. CC(C)(C)OC(=O)N1CCc2c(sc3ncn(-c4cccc(C=O)c4)c(=O)c23)C1
4.62

* * *

# studySystem: Intracellular chorismate mutase (Mycobacterium tuberculosis)
# testProtocol: Inhibition of Mycobacterium tuberculosis chorismate mutase at 50 uM using chorismate substrate by spectrophotometry
assayEndpoint: inhibition

Recorded results for 3 molecules are shown here.
O=c1c2c3c(sc2ncn1-c1ccccc1)CNCC3 36.2%
O=Cc1cccc(-n2cnc3sc4c(c3c2=O)CCCC4)c1 45.3%
O=c1c2c3c(sc2ncn1-c1ccc(F)cc1)CCCCC3 14.6%

For each listed entry, give its inhibition.
1. O=c1c2c3c(sc2ncn1-c1ccc2ccccc2c1)CCCC3
2. CC(C)(C)OC(=O)N1CCc2c(sc3ncn(-c4cccc(C=O)c4)c(=O)c23)C1
3. O=c1c2c3c(sc2ncn1-c1ccccc1)CCCCC3
4. O=c1c2c3c(sc2ncn1-c1cccc(Cl)c1)CCCC3
5. CC(C)(C)OC(=O)N1CCc2c(sc3ncn(-c4ccccc4)c(=O)c23)C1
6. O=c1c2c3c(sc2ncn1-c1ccc(F)cc1)CCCC3
7. O=c1c2c3c(sc2ncn1-c1ccccc1)CCCC3

1: 33%; 2: 49.9%; 3: 13%; 4: 42.5%; 5: 37.2%; 6: 12.8%; 7: 35.6%
